Test system: U2OS
procedure-summary: Multiplex assay against U2OS
Format: toxicity, cell-based
conditions-used: human, 24 h, 1 µM, compound concentration 1 uM, replicate 1
I'd be grateful if you could share measured Population Normal (%) for these entries.
Numbers only; they are read as %.

Q: Quick one: Population Normal (%) of "COc1cc(OC2CCN(C(C)=O)CC2)ccc1C(=O)N1CCC(N2C(=O)OCc3ccccc32)CC1" ?
Result: 98

Q: Lookup "CCc1nn2c(C)cc(C)nc2c1Cc1ccc(-c2nnc(C3CCNCC3)o2)cc1"
Result: 97

Q: Lookup "O=c1ccc2ccc(OCCCCN3CCN(c4cccc5sccc45)CC3)cc2[nH]1"
Result: 96

Q: Lookup "COc1cc(Nc2ncc3c(n2)-c2ccc(Cl)cc2C(c2c(F)cccc2OC)=NC3)ccc1C(=O)O"
Result: 98

###

Test system: U2OS
procedure-summary: Multiplex assay against U2OS
Type: toxicity, cell-based
conditions-used: human, 48 h, 10 µM, compound concentration 10 uM, replicate 1
Non-standard residues stand in square brackets, D forms with d. Residues, ends and D or L forms follow the SMILES beside them.
Could you mark each record label 1 if its Population Hoechst High Intensity Objects (%) falls strictly under 2%, and label 0 if it equals or exceeds it?

Q: Is Population Hoechst High Intensity Objects (%) strictly under 2% for the entry "CN1CCC(C(=O)c2cccc(NC(=O)c3c(F)cc(F)cc3F)n2)CC1" ?
Result: label 0

Q: Lookup "Cc1cc(=O)n(C)c2cc(N3C(=O)CC[C@H](NS(=O)(=O)CC(C)C)[C@H]3c3ccc(Cl)cc3)ccc12"
Result: label 0

Q: Lookup "COc1cc2nc(N3CCN(C(=O)COc4c(OC)cccc4C(C)C)CC3)nc(N)c2cc1OC.Cl.Cl"
Result: label 0

Q: Lookup CC(C)C[C@@H]1NC(=O)[C@@H](C(C)C)NC(=O)[C@@H]2CCCN2C(=O)[C@@H](CC(=O)O)NC(=O)[C@@H](Cc2c[nH]c3ccccc23)NC1=O [BQ-123] (cyclo(L[dW][dD]P[dV]))
Result: label 1

Q: Lookup O=C(NCCNCC(O)COc1ccc(O)cc1)N1CCOCC1.O=C(NCCNCC(O)COc1ccc(O)cc1)N1CCOCC1.O=C(O)/C=C/C(=O)O (configuration not stated) [XAMOTEROL FUMARATE]
Result: label 1

###

I'd be grateful if you could share measured Population Hoechst High Intensity Objects (%) for these entries.
Tested on: U2OS
procedure-summary: Multiplex assay against U2OS
Type: toxicity, cell-based
conditions-used: human, 12 h, 1 µM, compound concentration 1 uM, replicate 2
Non-standard residues stand in square brackets, D forms with d. Residues, ends and D or L forms follow the SMILES beside them.
Numbers only; they are read as %.

Q: Quick one: Population Hoechst High Intensity Objects (%) of CN1CCN2c3ccccc3Cc3ccccc3C2C1.Cl (stereo not drawn) [MIANSERIN HYDROCHLORIDE] ?
Result: 1

Q: Lookup "O=c1ccc2ccc(OCCCCN3CCN(c4cccc5sccc45)CC3)cc2[nH]1"
Result: 2

Q: Lookup "S=C(NCCCc1c[nH]cn1)NCCCN(Cc1ccc(Cl)c(Cl)c1)c1ccc(Br)cn1"
Result: 3

Q: Lookup "Cc1cc(-c2ccc3c(c2)CC[C@H]3N2CC3(CCN(C(=O)Cc4cn5cc(C)sc5n4)CC3)C2)ncn1"
Result: 0

Q: Lookup "Cc1cc(NC(=O)NCCN2CCC(O)(Cc3ccccc3)CC2)c2ccccc2n1"
Result: 0

Q: Lookup "COc1c(Nc2ccc(S(C)(=O)=O)nc2C)ncnc1OC1CCN(C(=O)OC(C)C)CC1"
Result: 3

Q: Lookup "OCCCNc1cc(-c2ccnc(Nc3cccc(Cl)c3)n2)ccn1"
Result: 5

Q: Lookup CC(C)C[C@@H]1NC(=O)[C@@H](C(C)C)NC(=O)[C@@H]2CCCN2C(=O)[C@@H](CC(=O)O)NC(=O)[C@@H](Cc2c[nH]c3ccccc23)NC1=O [BQ-123] (cyclo(L[dW][dD]P[dV]))
Result: 2

###

I'd be grateful if you could share measured Population Mitotic Cells (%) for these entries.
Test system: HEK-293T
procedure-summary: Multiplex assay against HEK293T
Assay type: toxicity, cell-based
conditions-used: human, 12 h, 1 µM, compound concentration 1 uM, replicate 1
Numbers only; they are read as %.

Q: Quick one: Population Mitotic Cells (%) of C=CCN1C[C@H](C(=O)N(CCCN(C)C)C(=O)NCC)C[C@@H]2c3cccc4[nH]cc(c34)C[C@H]21 [CABERGOLINE] ?
Result: 63

Q: Lookup Cc1cc(NC(=O)NCCN2CCC(O)(Cc3ccccc3)CC2)c2ccccc2n1 [PALOSURAN]
Result: 63

Q: Lookup "Cc1sc2c(c1C)C(c1ccc(Cl)cc1)=N[C@H](CC(=O)OC(C)(C)C)c1nnc(C)n1-2"
Result: 60

Q: Lookup COc1cc(Nc2ncc3c(n2)-c2ccc(Cl)cc2C(c2c(F)cccc2OC)=NC3)ccc1C(=O)O [ALISERTIB]
Result: 61

Q: Lookup "Cc1nn(C)c2nc(NNC(=O)Nc3cc(Cl)nc(Cl)c3)cc(C(C)C)c12"
Result: 72

Q: Lookup "CN1CCC(C(=O)c2cccc(NC(=O)c3c(F)cc(F)cc3F)n2)CC1"
Result: 67

Q: Lookup CCCCC[C@H](O)/C=C/[C@H]1[C@H](O)CC(=O)[C@@H]1CCCCCCC(=O)O [ALPROSTADIL]
Result: 64

Q: Lookup CSc1nc(NC2CCCC2)c([N+](=O)[O-])c(NC2CCCC2)n1 [GS-39783]
Result: 54

Q: Lookup "COc1cc2nc(N3CCN(C(=O)COc4c(OC)cccc4C(C)C)CC3)nc(N)c2cc1OC.Cl.Cl"
Result: 64

Q: Lookup "CC(F)(F)CN1CCOc2c(nn(-c3ccccc3Cl)c2-c2ccc(Cl)cc2)C1=O"
Result: 70

Q: Lookup "CC(C)(O)C(=O)N1CCN(c2ccc(C(F)(F)F)c(C3=C(c4c[nH]c5ccccc45)C(=O)NC3=O)c2)CC1"
Result: 66

Q: Lookup O=C(O)CCC/C=C\CC1C(O)CC(O)C1/C=C/C(O)COc1cccc(Cl)c1 (configuration not stated) [CLOPROSTENOL]
Result: 68

Q: Lookup CCC(=O)OCC(=O)[C@@]1(OC(=O)CC)[C@@H](C)C[C@H]2[C@@H]3CCC4=CC(=O)C=C[C@]4(C)[C@@]3(Cl)[C@@H](O)C[C@@]21C [BECLOMETHASONE DIPROPIONATE]
Result: 56

Q: Lookup "C[C@H](NC(=O)CNC(=O)c1cccc(Cl)c1)c1ccccc1"
Result: 66

Q: Lookup COCCCN1CCC(NC(=O)c2cc(Cl)c(N)c3c2OCC3)CC1 [PRUCALOPRIDE]
Result: 77

Q: Lookup "CN1CCN(c2ccc(Nc3c4ccccc4nc4ccccc34)cc2)CC1.Cl.Cl.O"
Result: 57

Q: Lookup Cc1ccc(OCC(O)C(C)NC(C)C)c2c1CCC2.Cl (configuration not stated)
Result: 65

###

Test system: HEK-293T
procedure-summary: Multiplex assay against HEK293T
Type: toxicity, cell-based
conditions-used: human, 24 h, 10 µM, compound concentration 10 uM, replicate 2
I'd be grateful if you could share measured Population Healthy Nuclei (%) for these entries.
Numbers only; they are read as %.

Q: Quick one: Population Healthy Nuclei (%) of "Nc1nc(CC(=O)Nc2ccc(CCNC[C@H](O)c3ccccc3)cc2)cs1" ?
Result: 82

Q: Lookup CN1C[C@H](C(=O)N[C@]2(C)O[C@@]3(O)[C@@H]4CCCN4C(=O)[C@H](Cc4ccccc4)N3C2=O)C[C@@H]2c3cccc4[nH]cc(c34)C[C@H]21.CS(=O)(=O)O [DIHYDROERGOTAMINE MESYLATE]
Result: 84

Q: Lookup CN(C)C/C=C/C(=O)Nc1ccc(C(=O)N2CCCC(Nc3ncc(Cl)c(-c4c[nH]c5ccccc45)n3)C2)cc1 (stereo not drawn)
Result: 68

Q: Lookup "O=c1ccc2ccc(OCCCCN3CCN(c4cccc5sccc45)CC3)cc2[nH]1"
Result: 59

Q: Lookup "CC(C)C[C@H](CO)Nc1nc(S[C@@H](C)c2ccccc2)nc2nc(N)sc12"
Result: 77

Q: Lookup "COc1cc2nc(N3CCN(C(=O)COc4c(OC)cccc4C(C)C)CC3)nc(N)c2cc1OC.Cl.Cl"
Result: 59

Q: Lookup "C[C@@H]1CC(=O)Nc2cccc(-c3ccc4c(c3)c(-c3cnn(C)c3)nn4C)c2N1"
Result: 72

Q: Lookup "S=C(NCCCc1c[nH]cn1)NCCCN(Cc1ccc(Cl)c(Cl)c1)c1ccc(Br)cn1"
Result: 59

###

System: HEK-293T
procedure-summary: Multiplex assay against HEK293T
Assay type: toxicity, cell-based
conditions-used: human, 24 h, 1 µM, compound concentration 1 uM, replicate 2
I'd be grateful if you could share measured Population Membrane Permeable-Phenotype (%) for these entries.
Numbers only; they are read as %.

Q: Quick one: Population Membrane Permeable-Phenotype (%) of "Cc1c(Cc2ccc3ccccc3n2)c2cc(F)ccc2n1CC(=O)O" ?
Result: 0

Q: Lookup "Cn1cc(C(=O)OCC2CCN(CCNS(C)(=O)=O)CC2)c2ccccc21"
Result: 0

Q: Lookup "Cc1cc(=O)n(C)c2cc(N3C(=O)CC[C@H](NS(=O)(=O)CC(C)C)[C@H]3c3ccc(Cl)cc3)ccc12"
Result: 1

Q: Lookup "C=CCN1C[C@H](C(=O)N(CCCN(C)C)C(=O)NCC)C[C@@H]2c3cccc4[nH]cc(c34)C[C@H]21"
Result: 0
